Give composite z-score for every item shown.
Tested on: Chordin-like protein 2 (CHRDL2)
Experiment: compounds binding chordin-like 2 – biochemical, small-molecule microarray, 635 nm fluorescence, primary screen (AID 1126);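 note: printed compound slides probed with Chrdl2 protein at 4 µg/mL for 1 h at 4 C; score merges 667 nm emission intensity with signal to noise over three replicate slides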
Conditions: fluorescence 635 nm, higher = more signal

Request: Entry under review: COC(=O)C(CC#Cc1ccc2c(c1)[C@]1(C(=O)N2)[C@H](c2ccc(O)cc2)N2[C@H](c3ccccc3)[C@H](c3ccccc3)OC(=O)[C@H]2[C@@H]1C(N)=O)C(=O)OC . Reported composite z-score?
Response: -2.25

Request: And what about the molecule C#CCNS(=O)(=O)N(C)C ?
Response: 0.497

Request: And what about the molecule COC(=O)[C@@]1(Cc2ccc(F)cc2)[C@H]2c3cc(C(=O)N(C)C)n(CCSCCO)c3C[C@H]2CN1C(=O)c1ccccc1 ?
Response: 0.191

Request: And what about the molecule COC(=O)[C@@]1(Cc2ccc(F)cc2)[C@H]2c3cc(C(=O)N(C)C)n(Cc4ccc(C)c(F)c4F)c3C[C@H]2CN1C(=O)c1ccccc1 ?
Response: -0.991

###

Assay: probe aDKK1 binding to arrayed compounds – biochemical, biotinylated probe, 635/667 nm fluorescence, primary screen (AID 1099);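 note: score merges 667nm spot fluorescence with signal to noise across triplicate slides; reference of the scale not given here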
Conditions: small-molecule microarray, higher = more signal
EXPERIMENTAL_ENDPOINT: composite z-score
Give the figure by itself; no unit, no explanation.

Request: Entry under review: O=C1OCC=C[C@H]2OC34C=CCN(CCN5CCOCC5)C(=O)[C@H]3N(CCCCCO)C(=O)[C@@H]4[C@@H]12 (some centres not stated) . Reported composite z-score?
Response: -0.284

Request: And what about the compound CCC[C@@H]1C[C@@]1(CCC)[C@@H](NC(=O)c1cccs1)c1ccc(Cl)cc1 ?
Response: 0.119

Request: And what about the compound CC(C)=CCCC(C)=CC(O)C1C=CC2C(=O)N(c3ccccc3)C(=O)C2N1Nc1ccc([N+](=O)[O-])cc1 (configuration not stated) ?
Response: -0.0499

Request: And what about the compound C=CCC(OC(C)=O)[C@@H]1[C@@H](N(Cc2ccc(-c3ccccc3)cc2)C(=O)Cc2ccc(OC)cc2)c2cc(OCCCO)ccc2N1C(=O)c1ccc(-c2ccccc2)cc1 (some centres not stated) ?
Response: 0.073

Request: And what about the compound COC(=O)[C@@]1(Cc2ccccc2N=[N+]=[N-])N=C(c2ccc(OCCCO)cc2)O[C@H]1c1ccccc1 ?
Response: 0.0665

Request: And what about the compound COC(=O)[C@@]1(Cc2ccc(OC)cc2)[C@H]2c3cc(C(=O)N(C)C)n(CCF)c3C[C@H]2CN1C(=O)c1ccccc1 ?
Response: 1.23

Request: And what about the compound [N-]=[N+]=NCc1ccccc1C[C@]1(C(=O)NCCN2CCOCC2)COC(c2ccc(OCCCO)cc2)=N1 ?
Response: 0.297

###

Give z-score for every item shown.
Test: plasmodial surface anion channel blockers, osmotic lysis – cell-based, P. falciparum Indochina, OD700, 1 h, primary screen (AID 1154)
Conditions: P. falciparum Indochina infected RBC osmotic lysis, higher = more signal, called active from +8 up or from −8 down
Activity calls are given as the source filed them.

Request: Entry under review: COCCOC(=O)N1C(=O)[C@@]2(c3cc(C#Cc4ccc(OC)cc4)ccc31)[C@H](C(=O)N1CCc3cc(OC)c(OC)cc3C1)[C@H]1C(=O)O[C@H](c3ccccc3)[C@H](c3ccccc3)N1[C@@H]2c1ccc(O)cc1 . Reported z-score?
Response: 1.74 (inactive)

Request: And what about the compound C#CCOC(=O)N[C@H](C=CCCCC)c1ccccc1 ?
Response: 0.801 (inactive)

Request: And what about the compound CCC[C@@H]1C[C@@]1(CCC)[C@@H](NC(=O)c1ccco1)c1ccc(Cl)cc1 ?
Response: 1.85 (inactive)

Request: And what about the compound COC(=O)c1ccc(OC)c(/C=C\CC(CCc2ccccc2)OC(=O)c2ccncc2)c1 (centres undefined) ?
Response: 17.9 (active)

Request: And what about the compound CCOc1cc(C(O)C2C=CC3C(=O)NC(=O)C3N2Nc2ccccn2)ccc1O (centres undefined) ?
Response: -0.251 (inactive)

Request: And what about the compound COCCOC(=O)N1C(=O)[C@@]2(c3cc(C#Cc4ccc(OC)cc4)ccc31)[C@H](c1ccc(OCCO)cc1)N1[C@H](c3ccccc3)[C@H](c3ccccc3)OC(=O)[C@H]1[C@@H]2C(N)=O ?
Response: 5.54 (inactive)

Request: And what about the compound COCCCNC(=O)[C@]1(CCS(=O)(=O)c2ccccc2)N=C(c2ccc(OCCCO)cc2)O[C@@H]1c1ccccc1 ?
Response: 26 (active)

Request: And what about the compound O=C1NC(=O)C2C1C=CC(C(O)CCc1ccccc1)N2Nc1ccccn1 (centres undefined) ?
Response: -0.247 (inactive)

Request: And what about the compound COC(=O)[C@@]1(Cc2ccc(OC)cc2)[C@H]2c3cc(C(=O)N4CCCC4)n(CCc4ccc(O)c(OC)c4)c3C[C@H]2CN1C(=O)c1ccccc1 ?
Response: 2.81 (inactive)

Request: And what about the compound C=CCC(OC(C)=O)[C@@H]1[C@@H](N(Cc2cccc3ccccc23)C(=O)c2ccc(C)cc2)c2cc(OCCCO)ccc2N1C(=O)c1ccc2ccccc2c1 (some centres undefined) ?
Response: 0.306 (inactive)

Request: And what about the compound Cc1ccc(N2C(=O)c3ccccc3[C@](C)(C(=O)NC(C)C)[C@@H]2c2ccc(CO)cc2)nc1 ?
Response: 0.641 (inactive)

Request: And what about the compound COc1ccc([Si](C)(C)[C@H]2[C@H](CCO)O[C@@]3(C(=O)N(Cc4cccc(N5CCOC5=O)c4)c4ccccc43)[C@@H]2C)cc1 ?
Response: 31.7 (active)

Request: And what about the compound [N-]=[N+]=NCc1ccccc1C[C@@]1(C(=O)NCCN2CCOCC2)N=C(c2ccc(OCCCO)cc2)O[C@@H]1c1ccccc1CN=[N+]=[N-] ?
Response: 26.4 (active)

Request: And what about the compound O=C(Nc1cc(Br)ccc1C(=O)NCc1cccc(O)c1)c1ccccc1 ?
Response: 17.5 (active)

Request: And what about the compound C[N+](C)(C)CCCCNC(=O)[C@H]1C[C@H]2C(=O)NCC(=O)N2[C@H]1c1ccc(O)cc1 ?
Response: 0.367 (inactive)

Request: And what about the compound COc1ccccc1CN1C(=O)c2ccccc2[C@](Cc2ccccc2I)(C(=O)NCCN2CCOCC2)[C@@H]1c1ccc(CO)cc1 ?
Response: 9.62 (active)

Request: And what about the compound [N-]=[N+]=Nc1ccccc1[C@H]1OC(c2ccc(OCCCO)cc2)=N[C@@]1(Cc1ccccc1)C(=O)NCc1ccccc1 ?
Response: 33.5 (active)

Request: And what about the compound NC(=O)[C@@H]1[C@H]2C(=O)O[C@H](c3ccccc3)[C@H](c3ccccc3)N2[C@H](c2ccccc2OCCO)[C@@]12C(=O)Nc1ccc(C#CCCO)cc12 ?
Response: 14.3 (active)

Request: And what about the compound COCCOC(=O)N1C(=O)[C@@]2(c3cc(C#Cc4ccc(OC)cc4)ccc31)[C@H](C(N)=O)[C@H]1C(=O)O[C@H](c3ccccc3)[C@H](c3ccccc3)N1[C@@H]2c1ccc(OCCO)cc1 ?
Response: 21.2 (active)

Request: And what about the compound O=C1C2C=CC(C(O)c3ccccn3)N(Nc3ccccc3)C2C(=O)N1c1ccccc1 (centres undefined) ?
Response: 1.67 (inactive)

Request: And what about the compound COCCOC(=O)N1C(=O)[C@@]2(c3cc(C#CCCO)ccc31)[C@H](C(=O)NC[C@H](O)c1ccccc1)[C@H]1C(=O)O[C@H](c3ccccc3)[C@H](c3ccccc3)N1[C@@H]2c1ccccc1OCCO ?
Response: 2.52 (inactive)

Request: And what about the compound Cc1ccccc1C(O)C1C=CC2C(=O)N(Cc3ccccc3)C(=O)C2N1n1cnnc1 (centres undefined) ?
Response: 1.4 (inactive)

Request: And what about the compound COCCCNC(=O)[C@@H]1c2ccccc2C(=O)N(c2ccc(C)cn2)[C@H]1c1ccc(CO)cc1 ?
Response: 1.21 (inactive)

Request: And what about the compound [N-]=[N+]=NCc1ccccc1[C@H]1OC(c2ccc(OCCCO)cc2)=N[C@@]1(Cc1ccccc1N=[N+]=[N-])C(=O)NCCN1CCOCC1 ?
Response: 24.7 (active)

###

Give composite z-score for every item shown.
Assay: probe aNog binding to arrayed compounds – biochemical, biotinylated probe, 635/667 nm fluorescence, primary screen (AID 1115);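 note: probe is biotinylated aNog protein used at 0.15 µg/mL for 1 h at 4 C; z-score combines 667 nm fluorescence of each spot with its signal to noise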
Settings: small-molecule microarray, higher = more signal
Give the figure by itself; no unit, no explanation.

Request: Entry under review: C#CCNS(=O)(=O)N(C)C . Reported composite z-score?
Response: -0.168

Request: And what about the compound COCCOC(=O)N1C(=O)[C@@]2(c3cc(C#CCC(C(=O)OC)C(=O)OC)ccc31)[C@H](c1ccc(OCCO)cc1)N1[C@H](c3ccccc3)[C@H](c3ccccc3)OC(=O)[C@H]1[C@@H]2C(N)=O ?
Response: 0.129

Request: And what about the compound CCOC(=O)C1=CCC(c2cccc(Cl)c2)O1 (stereo not drawn) ?
Response: 0.59
